Hello, the source for this data is the supplement of paper PMC11451515, in case you need it.

Tested on: NOMO1
test_name: AUC of viability dose-response curve (% viability x log10 dose units); higher = less sensitive
condition_description: RPMI 5 mM glucose + 10% FBS; 48 h
For each entry below, report its AUC of viability dose-response curve value.
Give bare numbers.

// worked examples, AUC of viability dose-response curve included
compound: COc1c(C)cnc(Cn2cnc3c(Cl)nc(N)nc32)c1C
AUC of viability dose-response curve: 324

compound: C\C1=C\C(=O)OC2=C1C=CC(=C2)O
AUC of viability dose-response curve: 470

compound: O=C(NCC[S+](=O)([O-])c1ccc(C(F)(F)F)cn1)c1ccc(Cl)cc1
AUC of viability dose-response curve: 461

compound: OC1=CC=C(C=C1)\C2=C\OC3=C(C=CC(=C3)O)C2=O
AUC of viability dose-response curve: 459

compound: C[C@]\12CC[C@H](O)CC1=C/CC3C2CC[C@@]\4(C)C3C\C=C4[N]5C=NC6=C5C=CC=C6 (some centres undefined)
AUC of viability dose-response curve: 454

Please look at the items below and tell me AUC of viability dose-response curve for each one, in order.
1. Cc1c(CCOc2ccc(C(=O)O)cc2)c2cc(Cl)ccc2n1C(c1ccccc1)c1ccccc1
2. C[C@H](O)[C@H]1[C@@H]2[C@H](C)C(=C(\N2C1=O)C(O)=O)/S[C@@H]3CN[C@H](CN[S+](N)([O-])=O)C3
3. CCCNC(=O)[C@H]1O[C@@H]1C(=O)N[C@H](C(=O)N1CCC[C@H]1C(=O)OC)C(C)CC (some centres undefined)
4. O=c1c(-c2ccc(O)cc2)coc2cc(O[C@@H]3O[C@H](CO)[C@@H](O)[C@H](O)[C@H]3O)ccc12

442
443
421
468

* * *

Tested on: P12-Ichikawa
test_name: cell viability relative to DMSO control; higher = less cytotoxic
condition_description: RPMI 5 mM glucose + 10% dialyzed FBS; 48 h; 0.0632 µM
observable: cell viability (%)
One number for each entry, in %.

# batch: return cell viability for each of the 2 compounds below
1. C\C1=C\C(=O)OC2=C1C=CC(=C2)O
2. CN(CC#C)C/C1=C/C2=CC=CC=C2OC3=CC=CC=C13

[120, 88]

Respectfully, I request cell viability for each entry included below.
1. COc1nccc(-c2c(-c3ccc(F)cc3)ncn2C2CCNCC2)n1
2. CC(NC1=CC=CC=C1)C\2=C\C(=C/N3C(=O)\C=C(/N=C23)N4CCOCC4)C (centres undefined)

1. 119
2. 99.1

Go through the list and state cell viability for each entry.
1. C[C@](O)(COc1ccc(C#N)cc1)C(=O)Nc1ccc(C#N)c(C(F)(F)F)c1
2. C#Cc1cccc(Nc2ncnc3cc(OCCOC)c(OCCOC)cc23)c1
3. Nc1ccccc1NC(=O)c1ccc(CNC(=O)OCc2cccnc2)cc1

[83.6, 96.4, 114]

Your task in this section: give cell viability for each listed record.
1. CC[C@H](CC#N)OC(=O)N[C@@H](C)c1cccc(NC(=O)Nc2ccc(-c3cnco3)c(OC)c2)c1
2. CNC1CCC(N(Cc2cccc(-c3ccncc3)c2)C(=O)c2sc3ccccc3c2Cl)CC1 (centres undefined)

1: 121; 2: 86.2

* * *

Test system: NOMO1
test_name: cell viability relative to DMSO control; higher = less cytotoxic
condition_description: RPMI 5 mM glucose + 10% FBS; 48 h; 0.00702 µM
observable: cell viability (%)
Answers are plain numbers, in %.

Okay, here is my list. What is cell viability for each of these?
1. CN(C)c1ccc(O)c2c1C[C@H]1C[C@H]3[C@H](N(C)C)C(O)=C(C(N)=O)C(=O)[C@@]3(O)C(O)=C1C2=O
2. OC[C@H]1O[C@@H](O[C@@H]2[C@@H](CO)O[C@](O)(CO)[C@H]2O)[C@H](O)[C@@H](O)[C@H]1O
3. O=NN(CCCl)C(=O)NC1CCCCC1
4. COC1=CC=CC2=C1C(=NC(=N2)C3=CC=CS3)NN4C(=O)\C=C(C)/C4=O
5. CN\1C(=O)/C(=C(\N=C1N2CCCC[S+]2([O-])=O)C(=O)NCC3=CC=C(F)C=C3)O

109
111
113
92.9
116
